assay: physchem; conditions: Ethanol:DMSO (95:5% v/v), Solubility at 50° C., Ethanol:DMSO (95:5% v/v)
Counter-ions that a name gives are not always drawn. Residues, ends and D or L forms follow the SMILES beside them.
quantity_kind: solubility

INPUT: Given Cc1cc(O)cc(C)c1C[C@H](NC(=O)[C@H](N)CCCNC(=N)N)C(=O)N[C@@H](CCCCN)C(=O)N[C@@H](Cc1ccccc1)C(N)=O [MTP-131 HCl] (HELM PEPTIDE1{[dR].[Cc1cc(O)cc(C)c1C[C@H](N[*:1])C(=O)[*:2]].K.F.[am]}$$$$V2.0) , state its recorded solubility.
OUTPUT: ~33 mg/mL

----------
test: physchem; conditions: 2-Propanol:Water (95:5 v/v), Solubility at 50° C., 2-Propanol:Water (95:5 v/v)
Counter-ions that a name gives are not always drawn. Residues, ends and D or L forms follow the SMILES beside them.
quantity_kind: solubility

INPUT: Given Cc1cc(O)cc(C)c1C[C@H](NC(=O)[C@H](N)CCCNC(=N)N)C(=O)N[C@@H](CCCCN)C(=O)N[C@@H](Cc1ccccc1)C(N)=O [MTP-131 HCl] (HELM PEPTIDE1{[dR].[Cc1cc(O)cc(C)c1C[C@H](N[*:1])C(=O)[*:2]].K.F.[am]}$$$$V2.0) , state its recorded solubility.
OUTPUT: < 10000 µg/mL

----------
assay: physchem
Structures can show the parent of a compound that is named as a salt. Residues, ends and D or L forms follow the SMILES beside them.
quantity_kind: solubility

INPUT: Given Cc1cc(O)cc(C)c1C[C@H](NC(=O)[C@H](N)CCCNC(=N)N)C(=O)N[C@@H](CCCCN)C(=O)N[C@@H](Cc1ccccc1)C(N)=O [MTP-131 HCl] (HELM PEPTIDE1{[dR].[Cc1cc(O)cc(C)c1C[C@H](N[*:1])C(=O)[*:2]].K.F.[am]}$$$$V2.0) , state its recorded solubility.
OUTPUT: ≤ 10 mg/mL

----------
experiment: physchem; conditions: Acetone:Water (95:5 v/v), Solubility at 50° C., Acetone:Water (95:5 v/v)
Counter-ions that a name gives are not always drawn. Residues, ends and D or L forms follow the SMILES beside them.
quantity_kind: solubility

INPUT: Given Cc1cc(O)cc(C)c1C[C@H](NC(=O)[C@H](N)CCCNC(=N)N)C(=O)N[C@@H](CCCCN)C(=O)N[C@@H](Cc1ccccc1)C(N)=O [MTP-131 HCl] (HELM PEPTIDE1{[dR].[Cc1cc(O)cc(C)c1C[C@H](N[*:1])C(=O)[*:2]].K.F.[am]}$$$$V2.0) , state its recorded solubility.
OUTPUT: < 10000 µg/mL

----------
experiment: physchem; settings: Ethanol, Solubility at 50° C.
Where a name gives a salt, the structure may show the parent alone. Residues, ends and D or L forms follow the SMILES beside them.
quantity_kind: solubility (mg/mL)
Give your result in mg/mL as a bare value.

INPUT: Given Cc1cc(O)cc(C)c1C[C@H](NC(=O)[C@H](N)CCCNC(=N)N)C(=O)N[C@@H](CCCCN)C(=O)N[C@@H](Cc1ccccc1)C(N)=O [MTP-131 HCl] (HELM PEPTIDE1{[dR].[Cc1cc(O)cc(C)c1C[C@H](N[*:1])C(=O)[*:2]].K.F.[am]}$$$$V2.0) , state its recorded solubility.
OUTPUT: 10
